- Test system: 817829-284-R-J1-PDC complex spheroids, viability
- ASSAY_SUMMARY: Anticancer human tumor 817829-284-R-J1-PDC patient-derived colon adenocarcinoma cell line growth inhibition [CLK]; active = viability on the fitted dose curve at most 10% of control; inactive = the rest
- ASSAY_CONDITIONS: second compound 0.0316 µM; first compound 0.1 µM
Respond only with the outcome that fits, drawn from label 1 for active, label 0 for inactive

// below: answered compounds
COc1c(OCCCN2CCOCC2)ccc2c3n(c(=NC(=O)c4cnc(N)nc4)nc12)CCN3 + CNC(=O)c1ccc(Nc2nc(OC3CCCC3)c3c(-c4ccc5nc(C)oc5c4)c[nH]c3n2)c(OC)c1 = label 0
COC1C=CCC(C)C(C)S(=O)(=O)NC(=O)c2ccc3c(c2)N(CC2CCC21)CC1(CCCc2cc(Cl)ccc21)CO3 (configuration not stated) + CN1CCN(c2cc(C(=O)Nc3cc4cc(-c5cnn(C)c5)ccc4cn3)ccn2)CC1 = label 0
CC(Nc1ccc2c(c1)OCCn1cc(N3C(=O)OCC3C(F)F)nc1-2)C(N)=O (configuration not stated) + CN1CCN(c2cc(C(=O)Nc3cc4cc(-c5cnn(C)c5)ccc4cn3)ccn2)CC1 = label 0

GET /call?item= C#Cc1c(F)ccc2cc(O)cc(-c3ncc4c(N5CC6CCC(C5)N6)nc(OCC56CCCN5CC(F)C6)nc4c3F)c12 (configuration not stated) + CNC(=O)c1ccc(Nc2nc(OC3CCCC3)c3c(-c4ccc5nc(C)oc5c4)c[nH]c3n2)c(OC)c1 returns the recorded outcome of this test.
label 0

Given Nc1ccn(C2OC(CO)C(O)C2(F)F)c(=O)n1 (configuration not stated) + CN1CCN(c2cc(C(=O)Nc3cc4cc(-c5cnn(C)c5)ccc4cn3)ccn2)CC1 , state the outcome it received in this test.
label 1

What outcome does the record of this test show for COc1c(OCCCN2CCOCC2)ccc2c3n(c(=NC(=O)c4cnc(N)nc4)nc12)CCN3 + CN1CCN(c2cc(C(=O)Nc3cc4cc(-c5cnn(C)c5)ccc4cn3)ccn2)CC1 ?
label 0

Please state the recorded outcome for this compound: CCc1c2c(nc3ccc(O)cc13)-c1cc3c(c(=O)n1C2)COC(=O)[C@]3(O)CC + CNC(=O)c1ccc(Nc2nc(OC3CCCC3)c3c(-c4ccc5nc(C)oc5c4)c[nH]c3n2)c(OC)c1
label 1

----------
- Tested on: 817829-284-R-J1-PDC complex spheroids, viability
- ASSAY_SUMMARY: Anticancer human tumor 817829-284-R-J1-PDC cell line growth inhibition [CLK]; active means viability on the fitted dose curve at most 10% of control; inactive means the rest;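 note: spheroids exposed to the agents for seven days before readout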
- ASSAY_CONDITIONS: second compound 0.0316 µM; first compound 0.316 µM
Pick one: active, inactive

CC(=O)O[C@H]1C(=O)[C@@]2(C)[C@H]([C@H](OC(=O)c3ccccc3)[C@]3(O)C[C@H](OC(=O)[C@H](O)[C@@H](NC(=O)c4ccccc4)c4ccccc4)C(C)=C1C3(C)C)[C@]1(OC(C)=O)CO[C@@H]1C[C@@H]2O + CN1CCN(c2cc(C(=O)Nc3cc4cc(-c5cnn(C)c5)ccc4cn3)ccn2)CC1 = active
C=C(F)C(=O)N1CCN(c2nc(OCC3CCCN3C)nc3c2CCN(c2cccc4cccc(Cl)c24)C3)CC1CC#N (stereo not given) + CN1CCN(c2cc(C(=O)Nc3cc4cc(-c5cnn(C)c5)ccc4cn3)ccn2)CC1 = inactive
CCN1CCN(Cc2ccc(Nc3ncc(F)c(-c4cc(F)c5nc(C)n(C(C)C)c5c4)n3)nc2)CC1 + CN1CCN(c2cc(C(=O)Nc3cc4cc(-c5cnn(C)c5)ccc4cn3)ccn2)CC1 = inactive
CCc1c2c(nc3ccc(O)cc13)-c1cc3c(c(=O)n1C2)COC(=O)[C@]3(O)CC + CN1CCN(c2cc(C(=O)Nc3cc4cc(-c5cnn(C)c5)ccc4cn3)ccn2)CC1 = active
CC(CO)NC(=O)c1cc(-c2ccc(Cl)cc2)nn(-c2cnn(C)c2)c1=O (stereo not given) + CN1CCN(c2cc(C(=O)Nc3cc4cc(-c5cnn(C)c5)ccc4cn3)ccn2)CC1 = inactive
COc1c(OCCCN2CCOCC2)ccc2c3n(c(=NC(=O)c4cnc(N)nc4)nc12)CCN3 + CN1CCN(c2cc(C(=O)Nc3cc4cc(-c5cnn(C)c5)ccc4cn3)ccn2)CC1 = active

Each compound tested received a call. Report the one for CC(=O)O[C@H]1C(=O)[C@@]2(C)[C@H]([C@H](OC(=O)c3ccccc3)[C@]3(O)C[C@H](OC(=O)[C@H](O)[C@@H](NC(=O)c4ccccc4)c4ccccc4)C(C)=C1C3(C)C)[C@]1(OC(C)=O)CO[C@@H]1C[C@@H]2O + CNC(=O)c1ccc(Nc2nc(OC3CCCC3)c3c(-c4ccc5nc(C)oc5c4)c[nH]c3n2)c(OC)c1 .
inactive

Ref: PubChem BioAssay AID2060599
